# assayed-system: FGFR2 (Homo sapiens (Human))
# Sequence (P21802 22-821): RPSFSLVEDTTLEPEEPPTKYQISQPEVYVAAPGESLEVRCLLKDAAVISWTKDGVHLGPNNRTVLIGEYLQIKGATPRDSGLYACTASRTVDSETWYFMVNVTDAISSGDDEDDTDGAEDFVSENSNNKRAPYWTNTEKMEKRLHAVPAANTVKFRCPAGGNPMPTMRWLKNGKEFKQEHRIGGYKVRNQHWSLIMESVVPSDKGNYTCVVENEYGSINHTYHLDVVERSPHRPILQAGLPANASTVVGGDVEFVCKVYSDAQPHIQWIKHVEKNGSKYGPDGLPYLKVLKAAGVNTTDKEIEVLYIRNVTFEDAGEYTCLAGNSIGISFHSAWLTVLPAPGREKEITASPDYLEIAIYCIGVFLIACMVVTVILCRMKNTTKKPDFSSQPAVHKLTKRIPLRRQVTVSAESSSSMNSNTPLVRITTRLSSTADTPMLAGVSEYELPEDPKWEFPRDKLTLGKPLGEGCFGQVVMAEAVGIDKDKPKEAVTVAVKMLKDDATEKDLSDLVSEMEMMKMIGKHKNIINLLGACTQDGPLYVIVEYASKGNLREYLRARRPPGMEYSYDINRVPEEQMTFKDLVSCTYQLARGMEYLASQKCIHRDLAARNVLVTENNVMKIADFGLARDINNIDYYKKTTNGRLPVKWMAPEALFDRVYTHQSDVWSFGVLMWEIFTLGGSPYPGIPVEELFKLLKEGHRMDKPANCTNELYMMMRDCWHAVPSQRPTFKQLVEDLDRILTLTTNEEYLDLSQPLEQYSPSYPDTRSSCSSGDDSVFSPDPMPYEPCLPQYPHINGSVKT
# run-description: FGFR Enzymatic Assay (FRET peptide phosphorylation), FGFR2
# condition-context: read-out: FGFR2 IC50; pre-incubated for 5 to 10 minutes
readout-type: IC50

{"columns": ["compound", "assayed-system", "reported-measurement"],
 "data": [
  ["C=CC(=O)Nc1cc(-c2cc3c(cn2)CN(c2c(F)c(OC)cc(OC)c2F)C(=O)C32CC2)ccc1CO [Example 13]", "FGFR2 (Homo sapiens (Human))", "0.03 to 0.2 µM"],
  ["C=CC(=O)Nc1cnc(C)c(-c2cc3c(cn2)CN(c2c(F)c(OC)cc(OC)c2F)C(=O)C32CC2)c1 [Example 7]", "FGFR2 (Homo sapiens (Human))", "> 0.2 µM"],
  ["C=CC(=O)Nc1cncc(-c2cc3c(cn2)CN(c2c(F)c(OC)cc(OC)c2F)C(=O)C32CC2)c1 [Example 3]", "FGFR2 (Homo sapiens (Human))", "0.03 to 0.2 µM"],
  ["C=CC(=O)N1CCCC(c2cc3c(cn2)CN(c2c(F)c(OC)cc(OC)c2F)C(=O)C32CC2)C1 (centres unmarked) [Example 8]", "FGFR2 (Homo sapiens (Human))", "> 0.2 µM"],
  ["C=CC(=O)N(C)c1cccc(-c2cc3c(cn2)CN(c2c(F)c(OC)cc(OC)c2F)C(=O)C32CC2)c1 [Example 9]", "FGFR2 (Homo sapiens (Human))", "0.03 to 0.2 µM"]
]}

Inquiry: Would you kindly share the measured IC50 for C=CC(=O)Nc1cc(-c2cc3c(cn2)CN(c2c(F)c(OC)cc(OC)c2F)C(=O)C32CC2)ccc1CN1CCOCC1 [Example 12] ?
Reply text: 0.03 to 0.2 µM

Inquiry: What do you have for C=CC(=O)Nc1ccc(C)c(-c2cc3c(cn2)CN(c2c(F)c(OC)cc(OC)c2F)C(=O)C32CC2)c1 [Example 2] ?
Reply text: > 0.2 µM

Inquiry: Now this one: C=CC(=O)Nc1cc(-c2cc3c(cn2)CN(c2c(F)c(OC)cc(OC)c2F)C(=O)C32CC2)cc(N2CCOCC2)c1 [Example 10]
Reply text: > 0.2 µM

Inquiry: Queued: C=CC(=O)Nc1cc(CN2CCOCC2)cc(-c2cc3c(cn2)CN(c2c(F)c(OC)cc(OC)c2F)C(=O)C32CC2)c1 [Example 11]
Reply text: > 0.2 µM

Inquiry: Proceed to C=CC(=O)Nc1cc(-c2cc3c(cn2)CN(c2c(F)c(OC)cc(OC)c2F)C(=O)C32CC2)c(C)cc1F [Example 6]
Reply text: > 0.2 µM

Inquiry: One more compound: C=CC(=O)Nc1ccc(C#N)c(-c2cc3c(cn2)CN(c2c(F)c(OC)cc(OC)c2F)C(=O)C32CC2)c1 [Example 5]
Reply text: > 0.2 µM
